# Assay summary: Selectivity index, ratio of LD50 for human WI-38 cells to LD50 for human MDA-MB-468 cells assessed as inhibition of cell proliferation by MTT assay
# Format: toxicity
# Condition notes: WI-38 cells and MDA-MB-468 cells, read-out: Selectivity Index
Give selectivity ratio for every item shown.
# respond with the number and nothing more

query: What does the data say about its selectivity ratio? Entry: N#Cc1ccc(C(=O)[C@H]2Oc3ccc4ccccc4c3[C@@H]2c2ccc3ccccc3c2)cc1
result: 1.63

query: Record: COc1cc([C@H]2c3c(ccc4ccccc34)O[C@@H]2C(=O)c2ccccc2)cc(OC)c1OC
result: 1.45

query: Record: O=C(c1ccc(F)cc1)[C@@H]1Cc2c(ccc3ccccc23)O1
result: 2

query: Record: Cc1ccc(C(=O)[C@@H]2Cc3c(ccc4ccccc34)O2)cc1
result: 3.87

query: Record: Cc1ccc([C@H]2c3c(ccc4ccccc34)O[C@@H]2C(=O)c2ccccc2)cc1
result: 1.14

query: Record: O=C(c1ccccc1)[C@H]1Oc2ccc3ccccc3c2[C@@H]1C1CCCCC1
result: 1.6

query: Record: O=C(c1ccco1)[C@H]1Oc2ccc3cc(Br)ccc3c2[C@@H]1c1ccccc1
result: 1.35

query: Record: O=C(c1ccccc1)[C@H]1Oc2ccc3ccccc3c2[C@@H]1c1ccc2ccccc2c1
result: 2.56

query: Record: O=C(c1ccccc1)[C@H]1Oc2ccc3ccccc3c2[C@@H]1c1ccc(O)cc1
result: 1.42

query: Record: O=C(c1ccccc1)[C@@H]1Cc2c(ccc3cc(Br)ccc23)O1
result: 2.28

// data source = ChEMBL document CHEMBL4725336
